Listed next: entries and their corresponding apparent KD of MS2 coat protein.
- Tested on: MS2 coat protein
- procedure-summary: apparent KD of MS2 coat protein; designed switch direction (-1 OFF switch, 1 ON switch): -1; higher = weaker reporter binding
- conditions: input ligand: FMN 200 uM
Kindly provide the numeric value in nM only, without the unit symbol.

# annotated cases, reported apparent KD of MS2 coat protein shown
{"ordered-residues": "UAUGUGUCAGGAUAUUAGUAGUAAAUAAAUAAAAUUAUUACUGAGAAGGGACAUGAGGAUCACCCAUGUACCUU [JR_Ex4_Sub051] (Eterna round: R97, puzzle: Exclusion 4)", "test-readout": "apparent KD of MS2 coat protein", "recorded-measurement": 22.6}
{"ordered-residues": "AAUCAUAGGUAAGGAUAUGAAGAUCUGGUGGUGACAUGAGGAUCACCCAUGUGAAAACGAUGAGAUCAGAAGGUACAAUAUGAA [AK ExNG2-4] (Eterna round: R96, puzzle: Exclusion NG 2)", "test-readout": "apparent KD of MS2 coat protein", "recorded-measurement": 108}

# next sequence below
Exercise: Which apparent KD of MS2 coat protein reading was recorded for the sequence AGUAGGAGAGGAUAUACGAAGUCAAAAGACUUCAAUACUCAACAUGAGGAUCACCCAUGUAGAAGGCUCCUACA [Omei Ex2 BD A4] (Eterna round: R97, puzzle: Exclusion 2) ?
Key: 22.9

----------
- System: MS2 coat protein
- procedure-summary: apparent KD of MS2 coat protein; higher = weaker reporter binding
- conditions: Eterna round: R107; input ligand: theophylline 2 mM
Listed next: entries and their corresponding apparent KD of MS2 coat protein.

{"ordered-residues": "UGUGUCGUCUGAAGGAGCGGCUCUUGAUCCUCGUGAGACAUGAGGAUCACCCAUGUCUCGAGCCAGGUAGGUCGCAGGCGGCACA [#26 Exclusion - Arginine B]", "recorded-measurement": "13.6 nM"}

Exercise: Which apparent KD of MS2 coat protein reading was recorded for the sequence GGGAGAUGAAUAGAAUGAGAUGACACAGAAGGAGCGUGAAUUAACACAGGUAGGUCGCUGACAACAUGAGGAUCACCCAUGUAUU [Same State Arginine A GF3] ?
Key: 19.5 nM

----------
- Test system: MS2 coat protein
- procedure-summary: apparent KD of MS2 coat protein; designed switch direction (-1 OFF switch, 1 ON switch): 1; higher = weaker reporter binding
- conditions: input ligand: microRNA oligo, concentration not stated
test-readout: apparent KD of MS2 coat protein (nM)
Kindly provide the numeric value in nM only, without the unit symbol.

# annotated cases, reported apparent KD of MS2 coat protein shown
{"ordered-residues": "GGUAGGUUACUACCAAACAUGAGGAUCACCCAUGUAAAUGGGAAGGAUAUGGUACCGUUUCGGUACCAGAAGGUCCAAAAUAUU [JL Fiskers NG3ss - 2 final mod] (Eterna round: R96, puzzle: Same State NG 3)", "measurement-units": "nM", "apparent KD of MS2 coat protein": 356}
{"ordered-residues": "GAGUAGUUGAAAGGAUAUGGAUUGUUAUAGAAUCCAGAAGGUUCUAACAUGAGGAUCACCCAUGUAGGACUAUUCCUGUGUAUC [Parity 79 - Jieux - Same State NG 1] (Eterna round: R96, puzzle: Same State NG 1)", "measurement-units": "nM", "apparent KD of MS2 coat protein": 9.3}
{"ordered-residues": "UCCGCUAUCUAGAAGGAUAUGCGUAUAUAAACAUGAGGAUCACCCAUGUACCGGCGAAAACCGGUGCAGAAGGUUUAGCUAGUGA [Rediin] (Eterna round: R96, puzzle: Same State 2)", "measurement-units": "nM", "apparent KD of MS2 coat protein": 298}

# next sequence below
Exercise: Which apparent KD of MS2 coat protein reading was recorded for the sequence GAAUUAAGAGUAGGAUAUGUGGGCGAGCUGCCACCCACAUGAGGAUCACCCAUGUAUGGACACUCACAGAAGGGCUUAUUCAAC [Eternabot solution 37] (Eterna round: R96, puzzle: Same State NG 2) ?
Key: 60.5
